# assay comment: soluble on expression in E. coli; label from the status in PepcDB or PDB records
measured attribute: soluble on expression in E. coli

The examples below pair each entry with its known result.
residue_sequence=MNGWNFQELKETPSQTGGPYVHIGLLPKQANIEVFEHNLDNNLVQDNTQGQRIRLEGQVFDGLSLPLRDVLIEIWQADTNGVYPSQADTQGKQVDPNFLGWGRTGADFGTGFWSFNTIKPGAVPGRKGSTQAPHISLIIFARGINIGLHTRVYFDDEAEANAKDPVLNSIEWATRRQTLVAKREERDGEVVYRFDIRIQGENETVFFDI measured_attribute="soluble on expression in E. coli" val=soluble
residue_sequence=MGHHHHHHSHMEGTYITSEHSYQKPQSFGQDCKSLADPGSSDDDDVSSLEEEQEFHMRSKNSLQYSAKEHGMPEKNPAEGNTVFVYNDKKGTEDPGDSHLQWQLNLLTHIENVQNEVTSRMDLIEKEVDVLESWLDFTGELEPPDPLARLPQLKRHIKQLLIDMGKVQQIATLCSV measured_attribute="soluble on expression in E. coli" val="not soluble"
residue_sequence=MGSDKIHHHHHHMAEAQLSLNLDIKHDASLSDFSGPGWMSIIDAVRQLHVGLIGQLYLFGSPATGKSHLLSAICESFIEMDKSAICLSLNELIHTDVNVLSSLENFSLIAIDDLEVIEQNSQWQEALFHLINRSREGQRQLLFAANKPASELPFQLRDLLTRLAQAPSFKVPTGHDLADREALLQSILRRRGWQFDERIANYLLTEGPHRIGAMMEVLNYIQPMFSNLGRSNISKAVIGDALRTIDEQTLAAELADIAQESQVDNDAADQDQHSQHTMPLDF measured_attribute="soluble on expression in E. coli" val="not soluble"
residue_sequence=MSLKISIVTSTNVYADIAKNIVGKYGSAKAIIKNSATDPHDFEPTTQDAKELSSTNIIVANGLGYDSWMNKLASSVDKKPVLVGEELMKLKKGANPHIWYSLSMPTEYVDYLVKRLSKIDSKHKAYFEANGKKYLAKINQVKALAKNSKKTDKMVFVSEPVFDYALAEAGYKIGDKDFEKAVENNTDPSPKTINRMTNDIKNKKIAFFVNNTQSSSSTVKTFVKLAKQNNIPVLNVRETIPNHTTYLNWMKENYQNLANISKEGHHHHHH measured_attribute="soluble on expression in E. coli" val=soluble
residue_sequence=MGSDKIHHHHHHMKKIRFAAIGLAHNHIYDMCQQLIDAGAELAGVFESDSDNRAKFTSLFPSVPFAASAEQLITDASIDLIACAVIPCDRAELALRTLDAGKDFFTAKPPLTTLEQLDAVQRRVAETGRKFAVYFNERINVDSALFAGELVQRGEIGRVIQTMGVGPHRERGARPDWFYQKRQYGGILCDIGIHQIEQFLYFTGNTNARVVTSQTANYHHPHHPEFEDFGDAMLLGDNGATGYFRCDWFTPDGLSVWGDGRLTILGTEGYIEIRKYVDLTRGESNVVYLVNGKGEQRFTPAGSVERAFFPDFLRDCRERTENAMSQSHIFKATELSILAQQAANKIA measured_attribute="soluble on expression in E. coli" val="not soluble"

*Q* Item under review: MSLNHLNDKVNEIKDNFYGLIGHAYLEKYITKPIVDEDKLRFLYTMLAEKLPKKDTKLFTLSALLVDAALEIHEAVSLHNIQTDPIKKNRQLNVLAGDYYSSLYYYLLADSRHLPIIQVFSHSIQEINEYKMKLYDGKNIDFDEVKNNVDKVDTFLLQNLAEHFQLTTWKKAISVFFHLKRLVHEREAWINGKATPLMKAIVTELFGSNRPVDELKKDDQLQVLELWEEKVEEGKDHLLEHVKALLPKFERFFVDHLNDLFGPDYIHEKVAEEGEGHHHHHH . Reported soluble on expression in E. coli?
*A* soluble

*Q* Item under review: MGSDKIHHHHHHQEPENQTLETILNRKSVRKYKDRPVEKEKIDKLIRAGMAAPSSRDRRPWEFIIVTDRKALDTMAEGLPFARMLKETRQAIVVCGDTIKSSNAWFLDCSAASQNLLLAAESMGLGAVWTAVYPYPDRIEIVRKELRLPDHIMPLNVIPVGYPMQKETPKNKYNVQQIHHNGW . Reported soluble on expression in E. coli?
*A* not soluble

*Q* Item under review: MSRIMIQGTASSVGKSILVAALCRIFKQDGFSVCPYKSQNMSLNSYITLDGKEMGRAQVLQAYAAGLEPEVYMNPILLKPTTDKSCQVIVKGEVYGVSSAKNYYNMKKEFAPMLKEDFEELEDKFDIVVIEGAGSPAEINLRENDIVNMGLAELVDAPVVLVGDIDKGGVFASLFGTVMLLEENERKRIKGTIINKFRGDVEILKPGLSMLEERINIPCFGVVPYFN . Reported soluble on expression in E. coli?
*A* not soluble

*Q* Item under review: AHHHHHHGSNFQQEILIIKSEIYPIVSKHYPKNTRREVISLYDLITFAILAHLHFNGVYKHAYRVLIEEMKLFPKIRYNKLTERLNRHEKLLLLAQEELFKKHAREYVRILDSKPIQTKELARKNRKDKEGSSEIISEKPAVGFVPSKKSFTMGTS . Reported soluble on expression in E. coli?
*A* not soluble

*Q* Item under review: MEKVKVKNPIVELDGDEMARVMWKMIKEKLILPYLDIQLVYFDLGIKKRDETDDQITIEAAKAIKKYGVGVKCATITPDAERVKEYNLKKAWKSPNATIRAYLDGTVFRKPIMVKNVPPLVKRWKKPIIIGRHAYGDIYNAVEAKVEGPAEVELVVRNKENKTLLVHKFEGNGVVMAMHNLEKSIRSFAQSCINYAISEKVDIWFATKDTISKVYHAYFKDIFQEEVDKRKEELEKAGVNYRYMLIDDAAAQILRSEGGMLWACMNYEGDIMSDMIASGFGSLGLMTSVLVSPDGVYEFEAAHGTVRRHYYRYLKGEKTSTNPTASIFAWTGAIRKRGELDGTPEVCEFADKLEKAVINTIESGVITKDLQPFTEPPIDKYVTLEEFIDEVKKNLEKLL . Reported soluble on expression in E. coli?
*A* soluble

*Q* Item under review: GMATLGANASLYSEQHRITYYECDRTGRATLTTLIDIAVLASEDQSDALGLTTEMVQSHGVGWVVTQYAIDITRMPRQDEVVTIAVRGSAYNPYFAYREFWIRDADGQQLAYITSIWVMMSQTTRRIVKILPELVAPYQSEVVKRIPRLPRPISFEATDTTITKPYHVRFFDIDPNRHVNNAHYFDWLVDTLPATFLLQHDLVHVDVRYENEVKYGQTVTAHANILPSEVADQVTTSHLIEVDDEKCCEVTIQWRTLPEPIQ . Reported soluble on expression in E. coli?
*A* soluble

Values from the DeepSol protein solubility set
